- Tested on: NCI-H2228
- Assay comment: relative viability (nuclei count vs DMSO), 5 days (fraction); higher = more cells survive
- Experimental parameters: first compound 0.1 µM
Quantity: relative viability

{"Compound": "NC(=O)Nc1cc(-c2cccc(F)c2)sc1C(=O)N[C@H]1CCCNC1 [AZD7762] + Cc1nc(Nc2ncc(C(=O)Nc3c(C)cccc3Cl)s2)cc(N2CCN(CCO)CC2)n1 [Dasatinib] (partner 0.075 µM)", "Obs value": 0.373}
{"Compound": "NC(=O)Nc1cc(-c2cccc(F)c2)sc1C(=O)N[C@H]1CCCNC1 [AZD7762] + N=C(N)NC(=N)NCCc1ccccc1 [Phenformin] (partner 250 µM)", "Obs value": 0.223}
{"Compound": "NC(=O)Nc1cc(-c2cccc(F)c2)sc1C(=O)N[C@H]1CCCNC1 [AZD7762] + C[C@]1(O)C[C@@H](c2nc(-c3ccc4ccc(-c5ccccc5)nc4c3)c3c(N)nccn32)C1 [Linsitinib] (partner 1 µM)", "Obs value": 0.734}
{"Compound": "NC(=O)Nc1cc(-c2cccc(F)c2)sc1C(=O)N[C@H]1CCCNC1 [AZD7762] + CC1(C)CCC(c2ccc(Cl)cc2)=C(CN2CCN(c3ccc(C(=O)NS(=O)(=O)c4ccc(N[C@H](CCN5CCOCC5)CSc5ccccc5)c(S(=O)(=O)C(F)(F)F)c4)cc3)CC2)C1 [Navitoclax] (partner 0.5 µM)", "Obs value": 1}
